Entries and their measured protein stability index follow.
B1: FAM9B (parent)
chain: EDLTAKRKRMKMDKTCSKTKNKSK

Variants of: B1
method_summary: protein stability index of a GFP-peptide fusion (GPS, HEK-293T) (PSI 1-6); higher = more stable;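 also: lentivirally expressed fusions sorted by FACS into six bins by GFP to DsRed ratio, PSI derived from sequencing read proportions per bin multiplied by bin number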
stated_conditions: c terminus: a fixed tail appended
observation_type: protein stability index

[[record]]
variant_name = "D2Y"
observed_value = 3.69

[[record]]
variant_name = "K18P"
observed_value = 5.87

[[record]]
variant_name = "K6I"
observed_value = 5.1

[[record]]
variant_name = "L3S"
observed_value = 4.99

[[record]]
variant_name = "T4P"
observed_value = 4.96

[[record]]
variant_name = "K18S"
observed_value = 4.78

[[record]]
variant_name = "E1V"
observed_value = 4.96

[[record]]
variant_name = "K6P"
observed_value = 5.59

[[record]]
variant_name = "C16L"
observed_value = 5.05

[[record]]
variant_name = "K22P"
observed_value = 5.58

[[record]]
variant_name = "K11F"
observed_value = 5.02

